# Experiment description: yeast display, Sf9 membrane polyspecificity reagent, FACS + sequencing; frameworks hold sequencing errors
Outcome measure: polyreactivity (PSR sort gate)

Before answering, review these 5 worked examples.
Monomer sequence	polyreactivity (PSR sort gate)
QVQLVESGGGLVQAGGSLRLSCAASGFTFRNYAMGWYRQAPGKERELVAAISKRGGNTYYADSVKGRFTISRDNAKNTVYLQMNSLKPEDTAVYYCAAQRYTGQGSGYGYWGQGTQVTVSS	high polyreactivity
QVQLVESGGALVQAGGSLRLSCAASGSTFAYYAMGWSRPAPGKERELVAAITRGGRTNYADSVKGRFTISRDNAKNTVYVQMNSLNREDTAVYYCAARSGRSWLTCSYDYWGQGTQVTVSS	high polyreactivity
QVQLVDSGGGLVQAGGSLRLSCAASGFIFYKYAMGWYRQATGKERELVAAISKRGGSTYYADSVKGRFTISRDNAKNTVYLQMNSLKPEYTAVYDCATDGGYSDTVRYVASDYWGQGTQVTVSS	high polyreactivity
QVQLVESGGGLVQAGGSLRLSCAASGIIFKQNVMGWYRQAPGKERELVAAITSRDGSTYYADSVKGRFTISRDNAKNTVYLQMNSLKPEDTAVYYCAAKWRSPRYYLYGYWGQGTQVTVSS	high polyreactivity
QVQLVESGGGLVQAAGSLRLSCAASGRTFYVYDMGWYRQAPGKERELVAVISSSGSTNYADSVKGRFTISGDNAKNSVYLQMNSLKPEDTAVYDCYRRRWYFFSLDYWGQGTQVTVSS	high polyreactivity

The recorded polyreactivity (PSR sort gate) for entry QVQLVESGGGLVQAGGSLRLSCAASGSTFDTYAMGWYRQAPGKERELVAAINSGGGTNYADSVKGRFTISRDNAKNTVYLQMNSLKPEDTAVYYCATDSRRDAGGGDFDYWGQGTQVTVSS equals low polyreactivity

The recorded polyreactivity (PSR sort gate) for entry QDQLVESGGGLVQAGGSLRLSCAASVSTFVNYAMGWYRQAPGKEMELVAAMSWSGGSTYYADSVKGRFTISRDNAKNTVYLQMNSLKPEDTAVYYCAVYAYWRFRTYYYWGQGTQVTVSA equals high polyreactivity

The recorded polyreactivity (PSR sort gate) for entry PVQLVDSGGGLVQAGGSLRLSCAASGRTFGWYAMGWYRQAPGKERELVAAIRGVRTHYADSVKGRFTISRDNAKNTVYLQMNSLKPEDTAVYYCAARYYRWTKSEYGYWGQGTQVTVSS equals high polyreactivity
